# Test system: 786-0 renal
# measurement_protocol: NCI-60 one-dose screen, 48 h (100 = growth as untreated, 0 = no growth, -100 = all killed)
# condition_label: 10 µM unless noted
The panel holds about 83,000 compounds, 20% with a hit somewhere; the sample as a whole holds those more often.
Answer false (0) if growth is under 90%, and true (1) if it is 90% or more.

In: Check if growth >= 90% (inclusive). Item: CCN1CCN(c2cc(C)nc(N(CCCNc3ccnc4cc(Cl)ccc34)Cc3cccs3)n2)CC1
Out: false (0)

In: Check if growth >= 90% (inclusive). Item: C#Cc1cccc(Nc2ncnc3cc4c(cc23)OCCOCCOCCO4)c1
Out: false (0)

In: Check if growth >= 90% (inclusive). Item: C[C@@H](Oc1cc(-n2cnc3ccc(CN4CCN(C)CC4)cc32)sc1C(N)=O)c1ccccc1C(F)(F)F
Out: false (0)

In: Check if growth >= 90% (inclusive). Item: COc1c(C(NC(=O)c2ccccc2)c2sccc2C)cc(Cl)c2cccnc12 (centres undefined)
Out: true (1)

In: Check if growth >= 90% (inclusive). Item: CCN1CCN(Cc2ccc(NC(=O)Nc3nc(-c4cc(OC)c(OC)c(OC)c4)cs3)cc2C(F)(F)F)CC1
Out: false (0)

Next:
In: Check if growth >= 90% (inclusive). Item: Cc1c(CN2CCN(C(=O)[C@H](C)O)CC2)sc2c(N3CCOCC3)nc(-c3cnc(N)nc3)nc12
Out: false (0)

In: Check if growth >= 90% (inclusive). Item: CC(C)(C)CC(C)(C)Nc1c(-c2c(O)c3ccccc3oc2=O)nc2c(Cl)cc(C(F)(F)F)cn12
Out: true (1)

In: Check if growth >= 90% (inclusive). Item: CCCNC(=O)c1cn2ncnc(Nc3cc(C(=O)NC4CC4)ccc3C)c2c1C
Out: true (1)

Every entry's value here was drawn from PubChem BioAssay (NCI).
